tested on: Daoy cells; test: MTS cell viability assay in Daoy cells; format: cell-based, human; conditions: Homo sapiens, Daoy, 72 h, read-out: Mean IC50, DAOY
quantityName: IC50

> print(dat)
                                   compound  observedmeasurement
1  C=CCn1c(=O)c2cnc(Nc3ccc(N4CCN(C)CC4)cc3)nc2n1-c1cccc(C(C)(C)O)n1 [AZD1775, reference compound]               378 nM

###

Recorded pIC50, one value per entry.
system: ONS-76 cells; assay: MTS cell viability assay in ONS-76 cells; assay type: cell-based; details: Homo sapiens; ONS-76 cells, 72 hr, MTS assay; read-out: Mean IC50, ONS-76
pIC50: −log10 of the molar value.
quantityName: pIC50

> print(dat)
                                 testsmiles    measuredon  quantityname  observedmeasurement
1  C=CCn1c(=O)c2cnc(Nc3ccc(OCCN(C)C)cc3)nc2n1-c1cccc(C(C)(C)O)n1  ONS-76 cells         pIC50                 6.56
2  C=CCn1c(=O)c2cnc(Nc3ccc(CCN(C)C)cc3)nc2n1-c1cccc(C(C)(C)O)n1  ONS-76 cells         pIC50                 6.31
